measurement.name: melting point

**Query** Item O=C(NCCCCCCC(=O)c1ncco1)c1cc2ccccc2[nH]1 [Example 110] has what recorded melting point?
**Result** 153 to 156 °C

**Query** Name the recorded melting point for O=C(CCCCCCSc1ccc2ccccc2c1)c1ncco1 [Example 104] .
**Result** 65 to 66 °C

---

# key: entry, value: melting point

Reference set (5 entries):
>>> measured("CNC(=O)C(=O)CCCCCCSc1ccc(-c2ccccc2)cc1 [Example 108]")
"131 to 132 °C"
>>> measured("CNC(=O)C(=O)CCCCCCS(=O)(=O)c1ccc2ccccc2c1 [Example 107]")
"108 to 109 °C"
>>> measured("CC(=O)C(=O)CCCCCCOc1ccc(-c2ccccc2)cc1 [Example 113]")
"110 to 111 °C"
>>> measured("O=C(NCCCCCC(=O)c1ncco1)c1cc2ccccc2[nH]1 [Example 111]")
"176 to 179 °C"
>>> measured("O=C(CCCCCCSc1ccccc1)c1ncco1 [Example 102]")
"39 to 40 °C"

**Query** Query (compound): O=C(CCCCCCS(=O)(=O)c1ccccc1)c1ncco1 [Example 103] ; field requested: melting point
**Result** 55 to 56 °C

**Query** So what does the record say about melting point for O=C(CCCCCCS(=O)(=O)c1ccc2ccccc2c1)c1ncco1 [Example 105] ?
**Result** 75 to 76 °C

**Query** I have this compound here, CNC(=O)C(=O)CCCCCCSc1ccc2ccccc2c1 [Example 106] , and I need its recorded melting point.
**Result** 94 to 95 °C
